Measured TGI by item
- Test system: HCC-2998 colon
- measurement.description: NCI tumour cell line growth inhibition, 48 h

Would you please look over these solved cases?
O=[N+]([O-])c1cccc(C=NC23CC4CC(CC(C4)C2)C3)c1 ... > 100 µM
Clc1ccc(Nc2ncnc3ccccc23)cc1 ... > 100 µM
CC(Cc1ccc(O)cn1)(NC(=O)c1ccccc1)C(=O)O (stereo not given) ... > 100 µM

q: Fill in TGI for record Brc1ccc(N=C/C=C(\Nc2ccc(Br)cc2)C23CC4CC(CC(C4)C2)C3)cc1
a: 35.8 µM

q: Fill in TGI for record CO[C@@H]1C[C@H]2[C@@H]3CC[C@H]([C@@H](C)COC(C)=O)[C@@]3(C)CC[C@@H]2[C@@]2(C)CC[C@H]3C[C@]312
a: 28.6 µM

q: Fill in TGI for record CN1C(=O)CNS1(=O)=O
a: > 100 µM

q: Fill in TGI for record CC(=O)OC12c3ccccc3C(c3ccccc31)C1C(=O)N(Nc3ccccc3)C(=O)C12 (stereo not given)
a: > 100 µM

q: Fill in TGI for record O=C(O)c1ccc(NCn2nc(-c3ccccc3O)oc2=S)cc1O
a: > 100 µM

q: Fill in TGI for record CC[C@H](C)[C@H](NC(=O)[C@H](Cc1ccc(O)cc1)NCC(F)(F)F)C(=O)OC(C)(C)C
a: 15.8 µM

q: Fill in TGI for record COc1ccc(-c2nc(Nc3ccc(F)cc3)nc(Nc3ccc4c(c3)nc(C)n4Cc3ccccc3)n2)cc1
a: > 100 µM

----------
Measured TGI by item
- Test system: TK-10 renal
- measurement.description: NCI tumour cell line growth inhibition, 48 h

Would you please look over these solved cases?
CCCCCCCCOP(=O)(O)OP(=O)(O)OCC1OC(n2ccc(N)nc2=O)C(O)C1O (stereo not given) ... > 100 µM
N#CCC(=O)N/N=C(/C(=O)Nc1ccccc1)C1C(=O)N(c2ccccc2)N=C1N (stereo not given) ... > 100 µM
O=C(NCCNc1nccc(-c2c(-c3ccc(F)cc3)nc3sccn23)n1)Nc1cccc(C(F)(F)F)c1 ... 36.2 µM
O=C(Nn1c(-c2ccccc2)nc2ccccc2c1=O)c1ccc([N+](=O)[O-])cc1 ... > 100 µM
Cc1cc(S(=O)(=O)Nc2n[nH]c(-c3ccc(Cl)cc3)c2C#N)c(S)cc1Cl ... > 100 µM
N#CC1(C#N)C2C=CC(C3CC=CC32)C1(C#N)C#N (stereo not given) ... 3.61 µM
O=C(O)CSc1nc2ccccc2[nH]1 ... > 100 µM
O=C1NC(=N[C@@H]2C[C@H]2c2ccccc2)S/C1=C\c1ccc2ncccc2c1 ... 5.58 µM

q: Fill in TGI for record CCN(CC)CCC1CCCCN1CC(=O)N1c2ccccc2NC(=O)CC1C (stereo not given)
a: > 100 µM

q: Fill in TGI for record C/C(=N/NC(=S)Nc1ccccc1C)c1ccccn1
a: 4.27 µM

----------
- System: M14 melanoma
- measurement.description: NCI tumour cell line growth inhibition, 48 h
Measured TGI by item
Give the value, in units of µM, as a plain number.

Would you please look over these solved cases?
CCOC(=O)C(CC(C)C)NC(=O)C(N)Cc1ccc(N(CCCl)CCCl)cc1 (stereo not given) ... 11.7
O=C([CH-]C(=O)c1ccccc1)c1ccccc1.O=C([CH-]C(=O)c1ccccc1)c1ccccc1.[CH2-]CCC.[CH2-]CCC.[Sn+4] ... 1.59

Please look at the following compound next.
q: Please tell me the measured TGI for CCOC(=O)c1c2c(n(Cc3ccccc3)c1C)-c1nc[nH]c1C(=O)C2=O ; system: M14 melanoma.
a: 37.9

----------
Measured TGI by item
- Tested on: HOP-62 NSCLC
- measurement.description: NCI tumour cell line growth inhibition, 48 h
Give the value, in units of µM, as a plain number.

Would you please look over these solved cases?
Cc1ccc(S(=O)OC2c3ccccc3Cc3ccccc32)cc1 (stereo unspecified) ... 34.3
CCCC(c1cc(C(C)(C)C)c(O)cc1C)c1cc(C(C)(C)C)c(O)cc1C ... 8

Please look at the following compound next.
q: Fill in TGI for record CN1CCN(C(=O)OCc2nc3c(N4CCOCC4)nc(-c4ccccc4)nc3n2C)CC1
a: 3.79

----------
- System: HT29 colon
- measurement.description: NCI tumour cell line growth inhibition, 48 h
Measured TGI by item

CCOC(=O)c1ccc(N(C)Cc2cnc3nc(N)nc(N)c3n2)cc1 ... > 100 µM

q: Please tell me the measured TGI for CCN1CCC(O)(/C=C/c2cccc(C)c2)C(C(=O)/C=C/c2cccc(C)c2)C1 (stereo unspecified) ; system: HT29 colon.
a: 3.18 µM

q: Please tell me the measured TGI for CCOC(=O)Cc1csc(Nc2nc(O)c(C3=c4ccccc4=NC3=O)s2)n1 ; system: HT29 colon.
a: > 100 µM

q: Please tell me the measured TGI for NC(=S)N/N=C/c1cn(CCCl)c2ccccc12 ; system: HT29 colon.
a: > 100 µM

q: Please tell me the measured TGI for CCCCCCCCOP(=O)(O)OP(=O)(O)OCC1OC(n2ccc(N)nc2=O)C(O)C1O (stereo unspecified) ; system: HT29 colon.
a: > 100 µM

q: Please tell me the measured TGI for CC(C)(Cl)C(Br)CCC(=CCBr)CBr (mixture of isomers) ; system: HT29 colon.
a: 4.65 µM

----------
- System: HL-60(TB) leukemia
- measurement.description: NCI tumour cell line growth inhibition, 48 h
quantity: TGI (µM)
Give the value, in units of µM, as a plain number.

COc1cc(C)cc(C(=O)OCc2ccccc2)c1C1=C(Cl)C(=O)C(Cl)=CC1=O ... 2.55
COc1ccc(-c2nc(SCC(=O)N/N=C/c3ccc([N+](=O)[O-])cc3)[nH]c2-c2ccc(OC)cc2)cc1 ... 24.7

q: Fill in TGI for record Brc1ccc2[nH]cc([C@@H]3CN[C@@H](c4c[nH]c5ccc(Br)cc45)CN3)c2c1
a: 4.24

q: Fill in TGI for record Cc1ccc(C2=NN=C3C(c4ccccc4)=Nc4ccccc4N3C2)cc1
a: 9.64

q: Fill in TGI for record CCOC(=O)C1C(c2ccccc2)C2(C#N)C(=N)OC1(C)C2(C#N)C#N (stereo not given)
a: 55.7

----------
- System: MOLT-4 leukemia
- measurement.description: NCI tumour cell line growth inhibition, 48 h
Measured TGI by item

Would you please look over these solved cases?
Nc1nc(N)c2cc(Sc3ccc(Cl)cc3)ccc2n1 ... 11.1 µM
CCCC(c1cc(C(C)(C)C)c(O)cc1C)c1cc(C(C)(C)C)c(O)cc1C ... 5.41 µM
COc1cc(CN(C)N2C(=O)c3cccc4cc([N+](=O)[O-])cc(c34)C2=O)cc(OC)c1OC ... > 100 µM

Please look at the following compound next.
q: Fill in TGI for record COC1OC(CO)C(O)C(NC(=O)N(C)N=O)C1O (stereo not given)
a: > 100 µM

----------
- System: SK-MEL-5 melanoma
- measurement.description: NCI tumour cell line growth inhibition, 48 h
quantity: TGI

Would you please look over these solved cases?
CCOC(=O)C(=NN(C)c1ncccc1N)C(=O)OCC ... > 100 µM
Nc1nc(N)c2cc(Sc3ccc(Cl)cc3)ccc2n1 ... 2.06 µM
O=C(/C=C/c1cccnc1)c1ccccc1 ... 27.5 µM

q: Fill in TGI for record ClCc1nnc2n1-c1ccc(Cl)cc1SC2
a: 9.49 µM

q: Fill in TGI for record COc1ccc(C(=O)O[C@@H]2CCN3CC[C@H](C)[C@H]23)cc1
a: > 100 µM

----------
Measured TGI by item
- System: SK-OV-3 ovarian
- measurement.description: NCI tumour cell line growth inhibition, 48 h

Would you please look over these solved cases?
Cc1nn(C(=O)c2ccc(Cl)cc2)c2c1C(c1ccccc1)SC(N)=N2 (stereo not drawn) ... > 10 µM
Clc1ccc(-c2cn3c(nc4ccccc43)c(/C=C/c3cccs3)n2)cc1 ... > 100 µM

q: Fill in TGI for record Nc1ccc(N=Nc2ccc(-c3ccc(N=Nc4c(S(=O)(=O)O)cc5cc(S(=O)(=O)O)c(N=Nc6ccc([N+](=O)[O-])cc6)c(N)c5c4O)cc3)cc2)c2cc(S(=O)(=O)O)ccc12
a: > 100 µM

----------
Measured TGI by item
- Tested on: CCRF-CEM leukemia
- measurement.description: NCI tumour cell line growth inhibition, 48 h

Would you please look over these solved cases?
O=C(/C=C/c1cccnc1)c1ccccc1 ... 9.91 µM
O=C(NCCCNc1cc(-c2cn(-c3ccccc3)nc2-c2cccc(O)c2)ccn1)c1ccc(F)cc1 ... > 100 µM
COc1ccc2c(c1)C(=O)/C(=C/c1ccccc1)C2 ... > 100 µM
N[C@@H]1c2c(Br)sc(Br)c2C(=O)[C@H]1Br ... > 22.6 µM
O=c1[nH]ncc2[nH]c(-c3ccccc3)cc12 ... > 100 µM
CCN(CC)CCOc1ccc(N2Cc3cc(OC)c(OC)cc3C2=O)cc1 ... > 100 µM
COc1cc(Br)cc2c1O[C@H]1C(=O)CC3CC21CCN3C (stereo not given in full) ... 43.9 µM
CCOC(=O)Nc1ccc2c3c(cccc13)-c1ccccc1-2 ... > 100 µM

q: Please tell me the measured TGI for O=C(NCCNc1nccc(-c2c(-c3ccc(F)cc3)nc3sccn23)n1)Nc1cccc(C(F)(F)F)c1 ; system: CCRF-CEM leukemia.
a: 30.1 µM

q: Please tell me the measured TGI for CCC(CO)COC(=O)/C=C/C(=O)OCC(CC)CO (stereo not given) ; system: CCRF-CEM leukemia.
a: > 82.6 µM

q: Please tell me the measured TGI for Cc1ccc(OC2CC(n3cnc4c(=O)[nH]c(Br)nc43)OC2Oc2ccc(C)cc2)cc1 (stereo not given) ; system: CCRF-CEM leukemia.
a: 53.7 µM

q: Please tell me the measured TGI for CNC(=O)N(CCCC(NC(C)=O)C(=O)NCc1ccccc1)Cc1ccccc1 (stereo not given) ; system: CCRF-CEM leukemia.
a: > 100 µM

q: Please tell me the measured TGI for CC(=O)OC1C(COC(N)=O)OC(n2c(-c3ccc(C)cc3)cc(-c3ccccc3)c(C#N)c2=O)C(OC(C)=O)C1OC(C)=O (stereo not given) ; system: CCRF-CEM leukemia.
a: > 100 µM

q: Please tell me the measured TGI for c1ccc2c(CNCCCN3CCN(CCCNCc4cccc5ccccc45)CC3)cccc2c1 ; system: CCRF-CEM leukemia.
a: 3 µM

Data credit: PubChem BioAssay (NCI)
